tested on: 565232-114-T-J1-PDC complex spheroid viability; test: Anticancer human tumor 565232-114-T-J1-PDC patient-derived bladder carcinoma cell line growth inhibition [CLK]; settings: second compound 0.1 µM; first compound 0.0316 µM; hits give low values
TEST READOUT: viability, T/C

| COMPOUND | SUBJECT OF TEST | RESULT |
| --- | --- | --- |
| COc1cccc2c1C(=O)c1c(O)c3c(c(O)c1C2=O)CC(O)(C(=O)CO)CC3OC1CC(N)C(O)C(C)O1 (stereo not given) + CNC(=O)c1ccc(Nc2nc(OC3CCCC3)c3c(-c4ccc5nc(C)oc5c4)c[nH]c3n2)c(OC)c1 | 565232-114-T-J1-PDC complex spheroid viability | 44.4% |
| C=CC(=O)N1CCN(c2nc(=O)n(-c3c(C)ccnc3C(C)C)c3nc(-c4c(O)cccc4F)c(F)cc23)C(C)C1 (stereo not given) + CNC(=O)c1ccc(Nc2nc(OC3CCCC3)c3c(-c4ccc5nc(C)oc5c4)c[nH]c3n2)c(OC)c1 | 565232-114-T-J1-PDC complex spheroid viability | 64.9% |
| O=c1[nH]cc(F)c(=O)[nH]1 + CN1CCN(c2cc(C(=O)Nc3cc4cc(-c5cnn(C)c5)ccc4cn3)ccn2)CC1 | 565232-114-T-J1-PDC complex spheroid viability | 90.5% |
| CC1COCCN1c1cc(C2(S(C)(=N)=O)CC2)nc(-c2ccnc3[nH]ccc23)n1 (stereo not given) + CNC(=O)c1ccc(Nc2nc(OC3CCCC3)c3c(-c4ccc5nc(C)oc5c4)c[nH]c3n2)c(OC)c1 | 565232-114-T-J1-PDC complex spheroid viability | 55.6% |
| O=c1[nH]cc(F)c(=O)[nH]1 + CNC(=O)c1ccc(Nc2nc(OC3CCCC3)c3c(-c4ccc5nc(C)oc5c4)c[nH]c3n2)c(OC)c1 | 565232-114-T-J1-PDC complex spheroid viability | 44% |
| COc1cccc2c1C(=O)c1c(O)c3c(c(O)c1C2=O)CC(O)(C(=O)CO)CC3OC1CC(N)C(O)C(C)O1 (stereo not given) + CN1CCN(c2cc(C(=O)Nc3cc4cc(-c5cnn(C)c5)ccc4cn3)ccn2)CC1 | 565232-114-T-J1-PDC complex spheroid viability | 115% |
| C#Cc1c(F)ccc2cc(O)cc(-c3ncc4c(N5CC6CCC(C5)N6)nc(OCC56CCCN5CC(F)C6)nc4c3F)c12 (stereo not given) + CN1CCN(c2cc(C(=O)Nc3cc4cc(-c5cnn(C)c5)ccc4cn3)ccn2)CC1 | 565232-114-T-J1-PDC complex spheroid viability | 96.8% |
| CC1COCCN1c1cc(C2(S(C)(=N)=O)CC2)nc(-c2ccnc3[nH]ccc23)n1 (stereo not given) + CN1CCN(c2cc(C(=O)Nc3cc4cc(-c5cnn(C)c5)ccc4cn3)ccn2)CC1 | 565232-114-T-J1-PDC complex spheroid viability | 95.7% |
| CC1(C)CCC(CN2CCN(c3ccc(C(=O)NS(=O)(=O)c4ccc(NCC5CCOCC5)c([N+](=O)[O-])c4)c(Oc4cnc5[nH]ccc5c4)c3)CC2)=C(c2ccc(Cl)cc2)C1 + CN1CCN(c2cc(C(=O)Nc3cc4cc(-c5cnn(C)c5)ccc4cn3)ccn2)CC1 | 565232-114-T-J1-PDC complex spheroid viability | 88.2% |
| CCN1CCN(Cc2ccc(Nc3ncc(F)c(-c4cc(F)c5nc(C)n(C(C)C)c5c4)n3)nc2)CC1 + CN1CCN(c2cc(C(=O)Nc3cc4cc(-c5cnn(C)c5)ccc4cn3)ccn2)CC1 | 565232-114-T-J1-PDC complex spheroid viability | 89% |

###

test system: 565232-114-T-J1-PDC complex spheroid viability; assay: Anticancer human tumor 565232-114-T-J1-PDC cell line growth inhibition [CLK]; details: second compound 10 µM; first compound 3.16 µM; hits give low values;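 note: spheroids exposed to compounds for 7 days before readout; 100% = DMSO vehicle wells with luminescence normalized to vehicle control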
Recorded viability, T/C, one value per entry.

| COMPOUND | viability, T/C |
| --- | --- |
| CC1COCCN1c1cc(C2(S(C)(=N)=O)CC2)nc(-c2ccnc3[nH]ccc23)n1 (stereo unspecified) + CN1CCN(c2cc(C(=O)Nc3cc4cc(-c5cnn(C)c5)ccc4cn3)ccn2)CC1 | 0.21% |
| C=CC(=O)N1CCN(c2nc(=O)n(-c3c(C)ccnc3C(C)C)c3nc(-c4c(O)cccc4F)c(F)cc23)C(C)C1 (stereo unspecified) + CNC(=O)c1ccc(Nc2nc(OC3CCCC3)c3c(-c4ccc5nc(C)oc5c4)c[nH]c3n2)c(OC)c1 | 28.1% |
| Nc1ccn(C2OC(CO)C(O)C2(F)F)c(=O)n1 (stereo unspecified) + CN1CCN(c2cc(C(=O)Nc3cc4cc(-c5cnn(C)c5)ccc4cn3)ccn2)CC1 | 2.1% |
| CC(=O)O[C@H]1C(=O)[C@@]2(C)[C@H]([C@H](OC(=O)c3ccccc3)[C@]3(O)C[C@H](OC(=O)[C@H](O)[C@@H](NC(=O)c4ccccc4)c4ccccc4)C(C)=C1C3(C)C)[C@]1(OC(C)=O)CO[C@@H]1C[C@@H]2O + CN1CCN(c2cc(C(=O)Nc3cc4cc(-c5cnn(C)c5)ccc4cn3)ccn2)CC1 | 1.4% |
| CC(=O)O[C@H]1C(=O)[C@@]2(C)[C@H]([C@H](OC(=O)c3ccccc3)[C@]3(O)C[C@H](OC(=O)[C@H](O)[C@@H](NC(=O)c4ccccc4)c4ccccc4)C(C)=C1C3(C)C)[C@]1(OC(C)=O)CO[C@@H]1C[C@@H]2O + CNC(=O)c1ccc(Nc2nc(OC3CCCC3)c3c(-c4ccc5nc(C)oc5c4)c[nH]c3n2)c(OC)c1 | 30.5% |
| C#Cc1c(F)ccc2cc(O)cc(-c3ncc4c(N5CC6CCC(C5)N6)nc(OCC56CCCN5CC(F)C6)nc4c3F)c12 (stereo unspecified) + CNC(=O)c1ccc(Nc2nc(OC3CCCC3)c3c(-c4ccc5nc(C)oc5c4)c[nH]c3n2)c(OC)c1 | 19.7% |

###

test system: 565232-114-T-J1-PDC complex spheroid viability; experiment: Anticancer human tumor 565232-114-T-J1-PDC cell line growth inhibition [CLK]; conditions: second compound 3.16 µM; first compound 0.0316 µM; active means viability on the fitted dose curve at most 10% of control; inactive means the rest;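 note: spheroids exposed to compounds for 7 days before readout; 100% = DMSO vehicle wells with luminescence normalized to vehicle control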
Classes used: active, inactive

| MOLECULE | SUBJECT OF TEST | LABEL CLASS |
| --- | --- | --- |
| C=CC(=O)N1CCN(c2nc(=O)n(-c3c(C)ccnc3C(C)C)c3nc(-c4c(O)cccc4F)c(F)cc23)C(C)C1 (stereo not given) + CNC(=O)c1ccc(Nc2nc(OC3CCCC3)c3c(-c4ccc5nc(C)oc5c4)c[nH]c3n2)c(OC)c1 | 565232-114-T-J1-PDC complex spheroid viability | inactive |
| CCN1CCN(Cc2ccc(Nc3ncc(F)c(-c4cc(F)c5nc(C)n(C(C)C)c5c4)n3)nc2)CC1 + CN1CCN(c2cc(C(=O)Nc3cc4cc(-c5cnn(C)c5)ccc4cn3)ccn2)CC1 | 565232-114-T-J1-PDC complex spheroid viability | active |
| COc1cccc2c1C(=O)c1c(O)c3c(c(O)c1C2=O)CC(O)(C(=O)CO)CC3OC1CC(N)C(O)C(C)O1 (stereo not given) + CN1CCN(c2cc(C(=O)Nc3cc4cc(-c5cnn(C)c5)ccc4cn3)ccn2)CC1 | 565232-114-T-J1-PDC complex spheroid viability | active |
| O=C(c1cc(Cc2n[nH]c(=O)c3ccccc23)ccc1F)N1CCN(C(=O)C2CC2)CC1 + CN1CCN(c2cc(C(=O)Nc3cc4cc(-c5cnn(C)c5)ccc4cn3)ccn2)CC1 | 565232-114-T-J1-PDC complex spheroid viability | active |
| Cn1ncnc1[C@H]1c2n[nH]c(=O)c3cc(F)cc(c23)N[C@@H]1c1ccc(F)cc1 + CNC(=O)c1ccc(Nc2nc(OC3CCCC3)c3c(-c4ccc5nc(C)oc5c4)c[nH]c3n2)c(OC)c1 | 565232-114-T-J1-PDC complex spheroid viability | inactive |
| COc1ccc([C@@H](O)c2cc(-c3ncnc4cc(N5CCOCC5)ccc34)c(F)cc2Cl)nn1 + CN1CCN(c2cc(C(=O)Nc3cc4cc(-c5cnn(C)c5)ccc4cn3)ccn2)CC1 | 565232-114-T-J1-PDC complex spheroid viability | active |
| CC(=O)O[C@H]1C(=O)[C@@]2(C)[C@H]([C@H](OC(=O)c3ccccc3)[C@]3(O)C[C@H](OC(=O)[C@H](O)[C@@H](NC(=O)c4ccccc4)c4ccccc4)C(C)=C1C3(C)C)[C@]1(OC(C)=O)CO[C@@H]1C[C@@H]2O + CNC(=O)c1ccc(Nc2nc(OC3CCCC3)c3c(-c4ccc5nc(C)oc5c4)c[nH]c3n2)c(OC)c1 | 565232-114-T-J1-PDC complex spheroid viability | inactive |
| CC(CO)NC(=O)c1cc(-c2ccc(Cl)cc2)nn(-c2cnn(C)c2)c1=O (stereo not given) + CN1CCN(c2cc(C(=O)Nc3cc4cc(-c5cnn(C)c5)ccc4cn3)ccn2)CC1 | 565232-114-T-J1-PDC complex spheroid viability | active |
| COc1c(OCCCN2CCOCC2)ccc2c3n(c(=NC(=O)c4cnc(N)nc4)nc12)CCN3 + CNC(=O)c1ccc(Nc2nc(OC3CCCC3)c3c(-c4ccc5nc(C)oc5c4)c[nH]c3n2)c(OC)c1 | 565232-114-T-J1-PDC complex spheroid viability | active |
| O=c1[nH]cc(F)c(=O)[nH]1 + CNC(=O)c1ccc(Nc2nc(OC3CCCC3)c3c(-c4ccc5nc(C)oc5c4)c[nH]c3n2)c(OC)c1 | 565232-114-T-J1-PDC complex spheroid viability | inactive |
| CCCS(=O)(=O)Nc1ccc(F)c(C(=O)c2c[nH]c3ncc(-c4ccc(Cl)cc4)cc23)c1F + CNC(=O)c1ccc(Nc2nc(OC3CCCC3)c3c(-c4ccc5nc(C)oc5c4)c[nH]c3n2)c(OC)c1 | 565232-114-T-J1-PDC complex spheroid viability | inactive |
| COc1ccc([C@@H](O)c2cc(-c3ncnc4cc(N5CCOCC5)ccc34)c(F)cc2Cl)nn1 + CNC(=O)c1ccc(Nc2nc(OC3CCCC3)c3c(-c4ccc5nc(C)oc5c4)c[nH]c3n2)c(OC)c1 | 565232-114-T-J1-PDC complex spheroid viability | inactive |
| Nc1ccccc1NC(=O)c1ccc(CNC(=O)OCc2cccnc2)cc1 + CNC(=O)c1ccc(Nc2nc(OC3CCCC3)c3c(-c4ccc5nc(C)oc5c4)c[nH]c3n2)c(OC)c1 | 565232-114-T-J1-PDC complex spheroid viability | inactive |
| C=C(F)C(=O)N1CCN(c2nc(OCC3CCCN3C)nc3c2CCN(c2cccc4cccc(Cl)c24)C3)CC1CC#N (stereo not given) + CNC(=O)c1ccc(Nc2nc(OC3CCCC3)c3c(-c4ccc5nc(C)oc5c4)c[nH]c3n2)c(OC)c1 | 565232-114-T-J1-PDC complex spheroid viability | inactive |
| C#Cc1c(F)ccc2cc(O)cc(-c3ncc4c(N5CC6CCC(C5)N6)nc(OCC56CCCN5CC(F)C6)nc4c3F)c12 (stereo not given) + CN1CCN(c2cc(C(=O)Nc3cc4cc(-c5cnn(C)c5)ccc4cn3)ccn2)CC1 | 565232-114-T-J1-PDC complex spheroid viability | active |
| CCc1c2c(nc3ccc(O)cc13)-c1cc3c(c(=O)n1C2)COC(=O)[C@]3(O)CC + CNC(=O)c1ccc(Nc2nc(OC3CCCC3)c3c(-c4ccc5nc(C)oc5c4)c[nH]c3n2)c(OC)c1 | 565232-114-T-J1-PDC complex spheroid viability | active |
| CC(Nc1ccc2c(c1)OCCn1cc(N3C(=O)OCC3C(F)F)nc1-2)C(N)=O (stereo not given) + CNC(=O)c1ccc(Nc2nc(OC3CCCC3)c3c(-c4ccc5nc(C)oc5c4)c[nH]c3n2)c(OC)c1 | 565232-114-T-J1-PDC complex spheroid viability | active |
| CC1COCCN1c1cc(C2(S(C)(=N)=O)CC2)nc(-c2ccnc3[nH]ccc23)n1 (stereo not given) + CN1CCN(c2cc(C(=O)Nc3cc4cc(-c5cnn(C)c5)ccc4cn3)ccn2)CC1 | 565232-114-T-J1-PDC complex spheroid viability | active |
| C#Cc1c(F)ccc2cc(O)cc(-c3ncc4c(N5CC6CCC(C5)N6)nc(OCC56CCCN5CC(F)C6)nc4c3F)c12 (stereo not given) + CNC(=O)c1ccc(Nc2nc(OC3CCCC3)c3c(-c4ccc5nc(C)oc5c4)c[nH]c3n2)c(OC)c1 | 565232-114-T-J1-PDC complex spheroid viability | inactive |
| Nc1ccn(C2OC(CO)C(O)C2(F)F)c(=O)n1 (stereo not given) + CNC(=O)c1ccc(Nc2nc(OC3CCCC3)c3c(-c4ccc5nc(C)oc5c4)c[nH]c3n2)c(OC)c1 | 565232-114-T-J1-PDC complex spheroid viability | inactive |
